# test_name: S16 Schwann cell viability assay (CellTiter-Glo assay) (AID 624031);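 further: native untransfected S16 rat Schwann cells; cellular ATP luminescence as a viability measure; nearly all actives have a fitted effect of over 70% in size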
# recorded_conditions: S16 rat Schwann cells viability, 24 h; series mostly up to 57.5 µM
Results filed as inconclusive are left out. Calls of active or inactive are those of the source. The call rests on the fitted dose curve; in most records, active means well fitted cell-killing curve with a large enough effect; inconclusive means small, poorly fitted or top-dose-only effect, or effect the other way; inactive means flat fitted curve, though single readings scatter.
# valid calls are active, inactive; nothing else

Query: Could you please tell me the result logged for `C[C@]12C/C(=C/O)C(=O)C[C@@H]1CC[C@@H]1[C@@H]2CC[C@@]2(C)[C@H]1CC[C@]2(C)O` in this assay?
Response: inactive

Query: Next compound up: `Cc1ccc(-c2nc3ccc(C)cn3c2CC(=O)N(C)C)cc1`
Response: inactive

Query: Next compound up: `Cc1ccc(S(=O)(=O)N[C@@H](CCCCN)C(=O)CCl)cc1`
Response: inactive

Query: Next compound up: `CN1C(=S)CN=C(c2ccccc2)c2cc(Cl)ccc21`
Response: inactive

Query: Next compound up: `CC(C)(N)Cc1ccc(Cl)cc1`
Response: inactive

Query: Next compound up: `C=C1CC[C@@]2(O)[C@H]3Cc4ccc(O)c5c4[C@@]2(CCN3CC2CC2)[C@H]1O5`
Response: inactive

Query: Next compound up: CC1NCCOC1c1ccccc1 (stereo not given)
Response: inactive

* * *

Each entry below carries its reported Potency.
# test_name: Confirmatory qHTS to identify inhibitors of SARS-CoV-2 cell entry (AID 1645844); further: potency means the concentration at half of the fitted maximal effect; nearly all actives have a fitted effect of over 45% in size
# recorded_conditions: SARS-CoV-2 pseudotyped particle cell entry, luciferase; series mostly up to 57.2 µM
Inconclusive results are not listed. Activity calls are given as the source filed them. Calls follow the shape of the full dose curve.

compound: CN(C)CCCN1c2ccccc2Sc2ccc(Cl)cc21
measurement_type: Potency
result: 12.1 µM (active)

Query: Please report the recorded Potency for `CO[C@@H](C(=O)N1Cc2[nH]nc(NC(=O)c3ccc(N4CCN(C)CC4)cc3)c2C1)c1ccccc1` .
Response: 0.482 µM (active)

Query: Next compound up: `COc1c(C)c2c(c(O)c1C/C=C(\C)CCC(=O)OCCN1CCOCC1)C(=O)OC2`
Response: 0.0764 µM (active)

Query: Next compound up: `Nc1ncn([C@@H]2O[C@H](CO)[C@@H](O)[C@H]2O)c(=O)n1`
Response: 17.1 µM (active)

Query: Next compound up: `CC(=O)[C@]1(O)Cc2c(O)c3c(c(O)c2[C@@H](O[C@H]2C[C@H](N)[C@H](O)[C@H](C)O2)C1)C(=O)c1ccccc1C3=O`
Response: 0.0764 µM (active)

Query: Next compound up: CC(CN1c2ccccc2Sc2ccccc21)N(C)C (stereo not drawn)
Response: 13.6 µM (active)

Query: Next compound up: `CC/C(=C(\c1ccccc1)c1ccc(OCCN(C)C)cc1)c1ccccc1`
Response: 27.8 µM (active)

Query: Next compound up: `O=C1CCc2ccc(OCCCCN3CCN(c4cccc(Cl)c4Cl)CC3)cc2N1`
Response: 19.2 µM (active)

* * *

# Tested on: CP217
# test_name: qHTS profiling for inhibitors of Plasmodium falciparum proliferation (AID 504749); further: nearly all actives have a fitted effect of over 60% in size
# recorded_conditions: P. falciparum in erythrocytes, SYBR Green DNA, 72 h; series mostly up to 28.7 µM
# Procedure: NIH National Institute of Allergy and Infectious Diseases [NIAID] NIH Chemical Genomics Center [NCGC] […] Because mature erythrocytes lack DNA, only Plasmodium-derived DNA is detected. NCGC Assay Protocol Summary: The SYBR Green viability assay was adapted from a method described previously (Plouffe et al., 2008). […] The following morning, fluorescence intensity at 485(14) nm excitation and 535(25) nm emission wavelengths was measured on an EnVision (Perkin Elmer) plate reader. […]
Inconclusive results are not listed. Active and inactive are the calls of the source. The call rests on the fitted dose curve; in most records, active means well fitted inhibition curve with a large enough effect; inconclusive means small, poorly fitted or top-dose-only effect; inactive means flat fitted curve, though single readings scatter.
# valid calls are Y (active), N (inactive); nothing else

Example entries and their recorded answers appear below.
compound: O=C(O)c1ccc2[nH]cc(CCCCN3CC=C(c4ccccc4)CC3)c2c1
category_label: N

compound: CC[N+](CC)(CC)CC
category_label: N

compound: COc1ccc(C(CN(C)C)C2(O)CCCCC2)cc1 (centres undefined)
category_label: N

Query: Could you please tell me the result logged for O=C(NC(O)C(Cl)(Cl)Cl)NC(O)C(Cl)(Cl)Cl (centres undefined) in this assay?
Response: N

Query: Next compound up: `CC(=O)[C@H]1CC[C@H]2[C@@H]3CC[C@H]4C[C@](C)(O)CC[C@]4(C)[C@H]3CC[C@]12C`
Response: N

Query: Next compound up: `Clc1cccc(N2CCNCC2)c1`
Response: N

Query: Next compound up: CCC(COC(=O)c1cc(OC)c(OC)c(OC)c1)(c1ccccc1)N(C)C (centres undefined)
Response: N

Query: Next compound up: `CN(C)CCc1ccc(O)cc1`
Response: N

Query: Next compound up: NCC(O)c1ccc(O)cc1 (centres undefined)
Response: N

Query: Next compound up: `CC(=O)[C@H]1CC[C@H]2[C@@H]3CC[C@H]4C[C@H](O)CC[C@]4(C)[C@H]3C(=O)C[C@]12C`
Response: N

Query: Next compound up: `CN1C(=S)CN=C(c2ccccc2)c2cc(Cl)ccc21`
Response: N

Query: Next compound up: `CN1C[C@H](CNC(=O)OCc2ccccc2)C[C@@H]2c3cccc4c3c(cn4C)C[C@H]21`
Response: Y

Query: Next compound up: CC1NCCOC1c1ccccc1 (centres undefined)
Response: N

Query: Next compound up: O=P1(NCCCl)OCCCN1CCCl (centres undefined)
Response: N
